Target: human MetAP2 enzyme (Homo sapiens, UniProt P50579)
Sequence (P50579 whole entry): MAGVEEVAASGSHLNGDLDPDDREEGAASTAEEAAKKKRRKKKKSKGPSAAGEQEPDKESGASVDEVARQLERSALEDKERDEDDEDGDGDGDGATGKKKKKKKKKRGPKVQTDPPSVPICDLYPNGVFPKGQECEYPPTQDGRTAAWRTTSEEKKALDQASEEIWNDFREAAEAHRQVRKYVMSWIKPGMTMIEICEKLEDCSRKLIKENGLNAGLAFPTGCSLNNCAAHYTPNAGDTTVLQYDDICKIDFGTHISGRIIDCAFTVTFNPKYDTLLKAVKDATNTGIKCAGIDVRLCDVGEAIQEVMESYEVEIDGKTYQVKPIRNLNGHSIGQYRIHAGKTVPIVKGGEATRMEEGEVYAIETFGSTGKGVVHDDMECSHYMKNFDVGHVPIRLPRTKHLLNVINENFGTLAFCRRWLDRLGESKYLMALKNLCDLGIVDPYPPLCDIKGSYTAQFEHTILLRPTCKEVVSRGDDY
Test: MetAP2 enzyme assay, enzyme complexed with manganese ions
Settings: MetAP2 Mn pIC50, MetAP2 enzyme complexed with manganese ions; Met-AMC substrate at Km
pIC50: −log10 of the molar value.
Classification field: condition met = pIC50 at or over 8; condition not met = pIC50 under 8.

Solved cases (6 shown):
Cc1nc(-n2cnnc2)ccc1-c1cc(C(F)(F)F)cc2[nH]ncc12    condition met
Cc1nn(C)c(C(N)=O)c1-c1cc(C(F)(F)F)cc2[nH]ncc12    condition not met
Cc1nn(CC(=O)N2CCOCC2)c(C)c1-c1cc(C(F)(F)F)cc2[nH]ncc12    condition not met
FC(F)(F)c1cc(-c2ccc(N3CCOCC3)nc2)c2cn[nH]c2c1    condition met
Cc1nn(CC(=O)N2CCOCC2)cc1-c1cc(C(F)(F)F)cc2[nH]ncc12    condition met
Cn1cc(-c2cc(C(F)(F)F)cc3[nH]ncc23)c(N)n1    condition not met

Evaluate Cc1nn(C)c(C)c1-c1cc(C(F)(F)F)cc2[nH]ncc12 : pIC50 at minimum 8?
condition met

Evaluate NC(=O)c1cc(F)ccc1-c1cc(C(F)(F)F)cc2[nH]ncc12 : pIC50 at minimum 8?
condition not met

Evaluate Cc1nc(C#N)ccc1-c1cc(C(F)(F)F)cc2[nH]ncc12 : pIC50 at minimum 8?
condition met

Evaluate COc1ccn2c(-c3cc(C(F)(F)F)cc4[nH]ncc34)cnc2c1C#N : pIC50 at minimum 8?
condition not met

Evaluate COc1ccc(CO)cc1-c1cc(C(F)(F)F)cc2[nH]ncc12 : pIC50 at minimum 8?
condition met

* * *

Biological target: UniProtKB P50579
Assay: MetAP2 enzyme assay, enzyme complexed with cobalt ions
Conditions: MetAP2 Co pIC50, MetAP2 enzyme complexed with cobalt ions; Met-AMC substrate at Km
pIC50: −log10 of the molar value.
Classification field: true (1) = pIC50 at or over 7; false (0) = pIC50 under 7.

Solved cases (4 shown):
Cc1nc(N)nc(C)c1-c1cc(C(F)(F)F)cc2[nH]ncc12    false (0)
COc1cccc(-c2cc(C(F)(F)F)cc3[nH]ncc23)n1    false (0)
Cc1c(-c2cc(C(F)(F)F)cc3[nH]ncc23)ccc2ncnn12    true (1)
N#CCNC(=O)c1c[nH]c(=O)c(-c2cc(C(F)(F)F)cc3[nH]ncc23)c1    false (0)

Evaluate NC(=O)c1ccccc1-c1cc(C(F)(F)F)cc2[nH]ncc12 : pIC50 at minimum 7?
false (0)

* * *

Biological target: human MetAP2 enzyme (Homo sapiens, UniProt P50579)
Assay: MetAP2 enzyme assay, enzyme complexed with cobalt ions
Conditions: MetAP2 Co pIC50, MetAP2 enzyme complexed with cobalt ions; Met-AMC substrate at Km
Documented IC50 across a set of molecules
# output: bare number, implied unit nM

Some solved cases for reference:
COc1nccc(-c2cc(C(F)(F)F)cc3[nH]ncc23)c1Cl [Example 124]    63.1
CNc1ncc(-c2cc(C(F)(F)F)cc3[nH]ncc23)cn1 [Example 196]    63.1

We next turn to a different molecule, shown below.
Request the reported IC50 associated with FC(F)(F)c1cc(-c2cccc(-c3cc[nH]n3)c2)c2cn[nH]c2c1 [Example 61]
158

* * *

Molecular target: human MetAP2 enzyme (Homo sapiens, UniProt P50579)
Experiment: MetAP2 enzyme assay, enzyme complexed with manganese ions
Conditions: MetAP2 Mn pIC50, MetAP2 enzyme complexed with manganese ions; Met-AMC substrate at Km
measurement_label: pIC50
Reminder that pIC50 is minus the log10 of a molar concentration.

Some solved cases for reference:
FC(F)(F)c1cc(-c2ccncc2Cl)c2cn[nH]c2c1    7.80
NS(=O)(=O)c1ccc(-c2cc(C(F)(F)F)cc3[nH]ncc23)cc1Cl    8.20
FC(F)(F)c1cc(-c2cccc3[nH]ccc23)c2cn[nH]c2c1    7.80

Request the reported pIC50 associated with FC(F)(F)c1cc(-c2cnc(N3CCOCC3)nc2)c2cn[nH]c2c1
8.20

* * *

Target: human MetAP2 enzyme (Homo sapiens)
Assay: MetAP2 enzyme assay, enzyme complexed with cobalt ions
Conditions: MetAP2 Co pIC50, MetAP2 enzyme complexed with cobalt ions; Met-AMC substrate at Km
pIC50: −log10 of the molar value.
Classification field: true (1) = pIC50 at or over 7; false (0) = pIC50 under 7.

Solved cases (10 shown):
N#Cc1cnc(N)c(-c2cc(C(F)(F)F)cc3[nH]ncc23)c1    false (0)
O=C(NC1CC1)c1ccc(-c2cc(C(F)(F)F)cc3[nH]ncc23)cc1    true (1)
Cc1nn(CC(=O)N2CC(O)C2)c(C)c1-c1cc(C(F)(F)F)cc2[nH]ncc12    true (1)
COCC(=O)Nc1ccc(-c2cc(C(F)(F)F)cc3[nH]ncc23)c(C)n1    true (1)
Cn1cc(-c2cc(C(F)(F)F)cc3[nH]ncc23)c(=O)[nH]c1=O    false (0)
Cc1nc(C)c(-c2cc(C(F)(F)F)cc3[nH]ncc23)s1    true (1)
FC(F)(F)c1cc(-c2cccnc2OCc2ccccc2)c2cn[nH]c2c1    false (0)
CCN(CC)C(=O)c1cccc(-c2cc(C(F)(F)F)cc3[nH]ncc23)c1    true (1)
Cc1nc(C(N)=O)ccc1-c1cc(C(F)(F)F)cc2[nH]ncc12    true (1)
CN1CCN(C(=O)c2cccc(-c3cc(C(F)(F)F)cc4[nH]ncc34)c2)CC1    true (1)

Evaluate COc1ccc(C)nc1-c1cc(C(F)(F)F)cc2[nH]ncc12 : pIC50 at minimum 7?
false (0)

Evaluate CCn1ncc(-c2cc(C(F)(F)F)cc3[nH]ncc23)c1C : pIC50 at minimum 7?
true (1)

Evaluate Cc1ncc(-c2cc(C(F)(F)F)cc3[nH]ncc23)n1C : pIC50 at minimum 7?
false (0)

Evaluate O=C(O)c1ncncc1-c1cc(C(F)(F)F)cc2[nH]ncc12 : pIC50 at minimum 7?
false (0)

Evaluate C[C@H](O)CNC(=O)c1cc(-c2cc(C(F)(F)F)cc3[nH]ncc23)c(=O)n(C)c1 : pIC50 at minimum 7?
false (0)

Evaluate Cc1nc(N2CCN[C@H](C)C2)ccc1-c1cc(C(F)(F)F)cc2[nH]ncc12 : pIC50 at minimum 7?
true (1)

Evaluate COc1ccc(N)c(-c2cc(C(F)(F)F)cc3[nH]ncc23)n1 : pIC50 at minimum 7?
false (0)

Evaluate O=C(NCCO)c1ccc(F)c(-c2cc(C(F)(F)F)cc3[nH]ncc23)c1 : pIC50 at minimum 7?
true (1)

Evaluate Cc1nn(Cc2cnn(C)c2)c(CO)c1-c1cc(C(F)(F)F)cc2[nH]ncc12 : pIC50 at minimum 7?
true (1)

Evaluate Cc1nn(CC(N)=O)c(C)c1-c1cc(C(F)(F)F)cc2[nH]ncc12 : pIC50 at minimum 7?
true (1)

* * *

Biological target: human MetAP2 enzyme (Homo sapiens, UniProt P50579)
Assay: MetAP2 enzyme assay, enzyme complexed with manganese ions
Details: MetAP2 Mn pIC50, MetAP2 enzyme complexed with manganese ions; Met-AMC substrate at Km
measurement_label: pIC50
Reminder that pIC50 is minus the log10 of a molar concentration.

Some solved cases for reference:
Fc1c(-c2cc(C(F)(F)F)cc3[nH]ncc23)ccnc1N1CCOCC1 [Example 65]    7.90
Nc1ncccc1-c1cc(C(F)(F)F)cc2[nH]ncc12 [Example 78]    8.30
Fc1cnc2[nH]ccc2c1-c1cc(C(F)(F)F)cc2[nH]ncc12 [Example 66]    7.80
COc1ccc(C(N)=O)cc1-c1cc(C(F)(F)F)cc2[nH]ncc12 [Example 273]    8.40
CNC(=O)Cn1nc(C)c(-c2cc(C(F)(F)F)cc3[nH]ncc23)c1C [Example 367]    7.80

Request the reported pIC50 associated with Cc1cc(=O)n(Cc2ccccn2)cc1-c1cc(C(F)(F)F)cc2[nH]ncc12 [Example 406]
7.80

Request the reported pIC50 associated with FC(F)(F)c1cc(-c2ccc(-c3ccn[nH]3)cc2)c2cn[nH]c2c1 [Example 62]
7.90

* * *

Biological target: human MetAP2 enzyme (Homo sapiens, UniProt P50579)
Assay: MetAP2 enzyme assay, enzyme complexed with cobalt ions
Conditions: MetAP2 Co pIC50, MetAP2 enzyme complexed with cobalt ions; Met-AMC substrate at Km
measurement_label: IC50 (µM)
# output: bare number, implied unit µM

Some solved cases for reference:
COc1cncc(-c2cc(C(F)(F)F)cc3[nH]ncc23)c1 [Example 42]    0.0631
OCc1cncc(-c2cc(C(F)(F)F)cc3[nH]ncc23)c1 [Example 29]    0.0794
O=C1CNc2ncc(-c3cc(C(F)(F)F)cc4[nH]ncc34)cc2N1 [Example 244]    0.0316
FC(F)(F)c1cc(-c2ccncc2Cl)c2cn[nH]c2c1 [Example 49]    0.2
CCOC(=O)Cn1cc(-c2cc(C(F)(F)F)cc3[nH]ncc23)cn1 [Example 260]    0.1

Request the reported IC50 associated with O=C(c1ccc(-c2cc(C(F)(F)F)cc3[nH]ncc23)cn1)N1CCOCC1 [Example 262]
0.2

Request the reported IC50 associated with Cn1ncc(-c2cc(C(F)(F)F)cc3[nH]ncc23)c1CO [Example 250]
0.0794

Request the reported IC50 associated with Cc1nn(CCC#N)c(C)c1-c1cc(C(F)(F)F)cc2[nH]ncc12 [Example 174]
0.0631

Request the reported IC50 associated with Cn1cc(C(=O)NCC(O)CO)cc(-c2cc(C(F)(F)F)cc3[nH]ncc23)c1=O (stereo not shown) [Example 356]
0.316

Request the reported IC50 associated with NS(=O)(=O)c1ccc(-c2cc(C(F)(F)F)cc3[nH]ncc23)c(F)c1 [Example 342]
0.0398

The values you see were collected from patent US9434743B2.
